This collection of values is drawn from patent US10464978B2.

- Tested on: HLA-A*02:01 (Homo sapiens, UniProt P04439, D140Y/D185E/D98H/E176V/E277Q/G131W/G231S/I119V/I121R/I166T/I218V/L300P/L318F/N151K/N90K/P208A/P217A/Q86G/Q94H/R138H/R169H/T345S)
- Assay name: MHC binding assay: UV-ligand exchange with beta2m ELISA (peptide exchange yield)
- Measurement parameters: binding to HLA-A*02:01
Observable: Peptide exchange (MHC class I binding score, peptide exchange yield)

In [3]: df
Out[3]:
                                  substance    measured_result
0  132 (LLVEQPPLAGV; listed as Homo sapiens) [compound 132]  “+++” (≥50 = +++)
1  224 (TLIDAQWVL; listed as Homo sapiens) [compound 224]  “+++” (≥50 = +++)
2  269 (RVLEVGALQAV; listed as Homo sapiens) [compound 269]   “++” (≥20% = ++)
3  385 (SLLEQGLVEA; listed as Homo sapiens) [compound 385]   “++” (≥20% = ++)
4  225 (SLLKVLPAL; listed as Homo sapiens) [compound 225]  “+++” (≥50 = +++)
